Molecular target: EP2 subtype of the human PGE2 receptor (Homo sapiens, UniProt P43116)
Sequence (P43116 whole entry): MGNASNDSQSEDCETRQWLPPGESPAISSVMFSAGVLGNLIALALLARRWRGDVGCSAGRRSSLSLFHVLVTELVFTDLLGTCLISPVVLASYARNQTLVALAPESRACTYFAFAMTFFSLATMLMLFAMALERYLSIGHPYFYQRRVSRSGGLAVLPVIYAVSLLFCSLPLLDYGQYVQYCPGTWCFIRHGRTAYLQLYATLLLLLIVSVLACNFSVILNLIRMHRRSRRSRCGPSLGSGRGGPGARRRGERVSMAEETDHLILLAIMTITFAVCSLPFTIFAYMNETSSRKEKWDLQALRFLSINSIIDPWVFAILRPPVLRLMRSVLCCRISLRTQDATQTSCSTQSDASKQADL
Test: cAMP antagonism test on the human EP2 receptor (HTRF cAMP detection)
Format: cell-based
Settings: hEP2 receptor, read-out: Antagonism hEP2 IC50
Here the recorded pIC50 is given for each entry.
Note on pIC50: it is the negative log10 of concentration, concentration in mol/L.

See these solved cases before continuing.
- Chemical structure: "COCCNC(=O)c1ccc2nn(CC3CCN(C(=O)c4ccc(-c5ccc(Cl)cc5C)cc4)CC3)cc2c1C"
  Measured metric: "pIC50"
  Assay value: 8.21
- Chemical structure: "Cc1c(C(=O)NCCOCC2CC2)ccc2nn(CC3CCN(C(=O)c4ccc(Oc5ccc(F)cc5)cc4)CC3)cc12"
  Measured metric: "pIC50"
  Assay value: 7.81
- Chemical structure: "Cc1c(C(=O)NCCOC(C)C)ccc2nn(CC3CCN(C(=O)c4ccc(C(F)(F)F)cc4)CC3)cc12"
  Measured metric: "pIC50"
  Assay value: 7.98

Entry under test: Cc1c(C(=O)NCC(F)(F)F)ccc2nn(CC3CCN(C(=O)c4ccc(Oc5ccc(C(F)(F)F)nc5)cc4)CC3)cc12 . Its pIC50 was 7.86

Entry under test: COCCNC(=O)c1ccc2nn(CC3CCN(C(=O)c4ccc(-c5cccc(OC)n5)cc4)CC3)cc2c1C . Its pIC50 was 8.11

Entry under test: COCCNC(=O)c1ccc2nn(CC3CCN(C(=O)c4ncc(-c5ccccc5)o4)CC3)cc2c1C . Its pIC50 was 8.23

Entry under test: Cc1c(C(=O)NCCOCC(F)(F)F)ccc2nn(CC3CCN(C(=O)c4ccc(Oc5ccc(F)cc5)cc4)CC3)cc12 . Its pIC50 was 7.90

Entry under test: COCCNC(=O)c1ccc2nn(CC3CCN(C(=O)c4ccc(C(F)F)cc4)CC3)cc2c1C . Its pIC50 was 7.98
